Record form. Attribute: pEC50. Fill in for each entry.
Reminder that pEC50 is minus the log10 of a molar concentration.

Record CC(N)(c1nc(-c2cc3c(cc2F)S(=O)(=O)C[C@H](N)C(=O)N3Cc2ccc(OC(F)(F)F)cc2)no1)C(F)(F)F (stereo partly shown) / primary human T-cells, pEC50 recorded as 7.13

Record CC(F)(F)CNC(=O)c1nc(-c2cc3c(cc2F)S(=O)(=O)C[C@H](N)C(=O)N3Cc2ccc(Cl)cc2)no1 / primary human T-cells, pEC50 recorded as 6.05

Record CC(C)(C)c1nnc(-c2cc3c(cc2F)S(=O)(=O)C[C@H](N)C(=O)N3Cc2ccc(OC3CCCC3)nc2)o1 / primary human T-cells, pEC50 recorded as 6.85

Record CN1CCN(c2nnc(-c3cc4c(cc3F)S(=O)(=O)C[C@H](N)C(=O)N4Cc3ccc(Cl)cc3)o2)CC1 / primary human T-cells, pEC50 recorded as 6.26

Record CC(C)(C)c1cnn(-c2cc3c(cc2F)S(=O)(=O)C[C@H](N)C(=O)N3Cc2ccc(Cl)cc2)c1 / primary human T-cells, pEC50 recorded as 5.43

Record NC1CN(c2nnc(-c3cc4c(cc3F)S(=O)(=O)C[C@H](N)C(=O)N4Cc3ccc(Cl)cc3)o2)CC(F)(F)C1 (stereo partly shown) / primary human T-cells, pEC50 recorded as 5.57

Record COC(=O)N1CC2CC(c3nc(-c4cc5c(cc4F)S(=O)(=O)C[C@H](N)C(=O)N5Cc4ccc(OC(F)(F)C(F)F)cc4)no3)(C2)C1 / primary human T-cells, pEC50 recorded as 6.00

====

tested on: primary human T-cells; experiment: Proliferation assay after 5 days (CellTiter-Glo, CD3 stimulation; PBS counter screen); assay type: cell-based; conditions: Homo sapiens, T-cell, 120 h, CD3 stimulation, 5 days; normalized to reference compound A1 as stimulator control = 100%, DMSO neutral control; read-out: Emax proliferation (% activation)
Record form. Attribute: Emax. Fill in for each entry.
Enter your answer as a number in %; do not include the unit.

The measured Emax associated with COC(=O)N1CCCC(c2nnc(-c3cc4c(cc3F)S(=O)(=O)C[C@H](N)C(=O)N4Cc3ccc(Cl)cc3)o2)C1 (stereo partly shown) [Example 165] reads 85

The measured Emax associated with CC(=O)N1CCC(c2nnc(-c3cc4c(cc3F)S(=O)(=O)C[C@H](N)C(=O)N4Cc3ccc(Cl)cc3)o2)CC1 [Example 168] reads 63

The measured Emax associated with N[C@H]1CS(=O)(=O)c2cc(F)c(-c3noc(C4(CO)CCCO4)n3)cc2N(Cc2ccc(Oc3ccccc3)cc2)C1=O (stereo partly shown) [Example 521] reads 189

The measured Emax associated with C#CC1(Nc2nnc(-c3cc4c(cc3F)S(=O)(=O)C[C@H](N)C(=O)N4Cc3ccc(Cl)cc3)o2)CCCCC1 [Example 497] reads 125

The measured Emax associated with N[C@H]1CS(=O)(=O)c2ccc(-c3nnc(C4(C(F)(F)F)CC4)o3)cc2N(Cc2ccc(Cl)cc2)C1=O [Example 366] reads 106

The measured Emax associated with CS(=O)(=O)N1CCC(n2nnc(-c3cc4c(cc3F)S(=O)(=O)C[C@H](N)C(=O)N4Cc3ccc(Cl)cc3)n2)C1 (stereo partly shown) [Example 19] reads 58

The measured Emax associated with CC(C)(C)c1nnc(-c2cc3c(cc2F)S(=O)(=O)C[C@H](N)C(=O)N3Cc2ccc(Cl)cc2)s1 [Example 508] reads 110

====

test system: primary human T-cells; assay: Proliferation assay after 5 days (CellTiter-Glo, CD3 stimulation; PBS counter screen); format: cell-based; details: Homo sapiens, T-cell, 120 h, CD3 stimulation, 5 days; normalized to reference compound A1 as stimulator control = 100%, DMSO neutral control; read-out: Emax proliferation (% activation)
The threshold is inclusive: Emax of exactly 90% counts as Fulfilled; values below receive Not fulfilled.

Ask | Form field: Emax at least 90%? Entry: CCc1coc(-c2cc3c(cc2F)S(=O)(=O)C[C@H](N)C(=O)N3Cc2ccc(Cl)cc2)n1
Reply | Not fulfilled

Ask | Form field: Emax at least 90%? Entry: CC(C)(C)c1nnc(-c2ccc3c(c2)N(Cc2ccc(OC(F)(F)C(F)F)cc2)C(=O)[C@@H](N)CS3(=O)=O)o1
Reply | Fulfilled

Ask | Form field: Emax at least 90%? Entry: CC(O)(CNC(=O)c1nc(-c2cc3c(cc2F)S(=O)(=O)C[C@H](N)C(=O)N3Cc2ccc(Cl)cc2)no1)C(F)(F)F (stereo partly shown)
Reply | Fulfilled

Ask | Form field: Emax at least 90%? Entry: COC(=O)N1CC2CC(c3nc(-c4cc5c(cc4F)S(=N)(=O)C[C@H](N)C(=O)N5Cc4ccc(OC(F)(F)C(F)F)cc4)no3)(C2)C1 (stereo partly shown)
Reply | Not fulfilled

Ask | Form field: Emax at least 90%? Entry: N[C@H]1CSc2cc(F)c(-n3cc(Cc4ccc(Cl)cc4)nn3)cc2N(Cc2ccc(Cl)cc2)C1=O
Reply | Not fulfilled

Ask | Form field: Emax at least 90%? Entry: NC1CC2(C1)CC(c1nnc(-c3cc4c(cc3F)S(=O)(=O)C[C@H](N)C(=O)N4Cc3ccc(Cl)cc3)o1)C2 (stereo partly shown)
Reply | Not fulfilled

====

test system: primary human T-cells; assay: Proliferation assay after 5 days (CellTiter-Glo, CD3 stimulation; PBS counter screen); type: cell-based; conditions: Homo sapiens, T-cell, 120 h, CD3 stimulation, 5 days; normalized to reference compound A1 as stimulator control = 100%, DMSO neutral control; read-out: Emax proliferation (% activation)
Record form. Attribute: Emax. Fill in for each entry.
Enter your answer as a number in %; do not include the unit.

The measured Emax associated with CC(C)(F)c1nc(-c2cc3c(cc2F)S(=O)(=O)C[C@H](N)C(=O)N3Cc2ccc(Cl)cc2)no1 [Example 47] reads 142

The measured Emax associated with CCN1CCCC(Nc2nnc(-c3cc4c(cc3F)S(=O)(=O)C[C@H](N)C(=O)N4Cc3ccc(Cl)cc3)o2)C1 (stereo partly shown) [Example 457] reads 50

The measured Emax associated with Cc1cc2c(cc1-c1nnc(C3CN(C)CC(F)(F)C3)o1)N(Cc1ccc(Cl)cc1)C(=O)[C@@H](N)CS2(=O)=O (stereo partly shown) [Example 524] reads 80

The measured Emax associated with N[C@H]1CS(=O)(=O)c2cc(F)c(-c3nnc(NC4(CCO)CCCCC4)o3)cc2N(Cc2ccc(Cl)cc2)C1=O [Example 483] reads 79

The measured Emax associated with CC(C)(CN1CCCCC1=O)c1nnc(-c2cc3c(cc2F)S(=O)(=O)C[C@H](N)C(=O)N3Cc2ccc(Cl)cc2)o1 [Example 66] reads 112

The measured Emax associated with N[C@H]1CS(=O)(=O)c2cc(F)c(-c3nnc(NCC(F)(F)F)o3)cc2N(Cc2ccc(Cl)cc2)C1=O [Example 487] reads 112

The measured Emax associated with N[C@H]1CS(=O)(=O)c2ccc(-c3nnc(C4(N)CCOCC4)o3)cc2N(Cc2ccc(OC(F)(F)F)cc2)C1=O [Example 418] reads 52

====

system: primary human T-cells; assay: Proliferation assay after 5 days (CellTiter-Glo, CD3 stimulation; PBS counter screen); type: cell-based; details: Homo sapiens, T-cell, 120 h, primary human T-cells, CD3 stimulation, CellTiter-Glo after 5 days; EC50 of fitted sigmoidal curve; read-out: Tcell Proliferation CD3 EC50
Counter-ions that a name gives are not always drawn.
Checkbox rule: EC50 lower than 1 µM = MET; EC50 not lower than 1 µM = NOT MET.

Ask | For N[C@H]1CS(=O)(=O)c2cc(F)c(-c3nnc(N4CCC5(CC4)CC(F)(F)CN5)o3)cc2N(Cc2ccc(Cl)cc2)C1=O [Example 475, hydrochloride] , is the recorded EC50 below the cut-off of 1 µM?
Reply | MET

Ask | For CS(=O)(=O)N1CCC(n2nnc(-c3cc4c(cc3F)S(=O)(=O)C[C@H](N)C(=O)N4Cc3ccc(Cl)cc3)n2)C1 (stereo partly drawn) [Example 19] , is the recorded EC50 below the cut-off of 1 µM?
Reply | NOT MET

Ask | For CN1CCC(F)(F)C(c2nnc(-c3cc4c(cc3F)S(=O)(=O)C[C@H](N)C(=O)N4Cc3ccc(Cl)cc3)o2)C1 (stereo partly drawn) [Example 158] , is the recorded EC50 below the cut-off of 1 µM?
Reply | NOT MET

Ask | For N[C@H]1CS(=O)(=O)c2cc(F)c(-c3nnc(NC4CCCC4)o3)cc2N(Cc2ccc(Cl)cc2)C1=O [Example 455] , is the recorded EC50 below the cut-off of 1 µM?
Reply | MET

Ask | For CC1(c2nc(-c3cc4c(cc3F)[S+]([O-])C[C@H](N)C(=O)N4Cc3ccc(Cl)cc3)no2)CC[N+]([O-])(CC(F)(F)F)CC1 (stereo partly drawn) [Example 308] , is the recorded EC50 below the cut-off of 1 µM?
Reply | NOT MET

Ask | For C#CCC(C)(C)c1nnc(-c2cc3c(cc2F)S(=O)(=O)C[C@H](N)C(=O)N3Cc2ccc(OC(F)(F)F)cc2)o1 [Example 450] , is the recorded EC50 below the cut-off of 1 µM?
Reply | MET

Data credit: patent US20240368150A1
